Test: Pharmacokinetic (PK) study, oral gavage, plasma LC-MS/MS
Details: female, Sprague Dawley, rat, po, 10 mg/kg, Cmax, female Sprague Dawley rats, oral gavage 10 mg/kg, Capryol 90/Triacetin (1:1, v/v)
measured.attribute: Cmax

Below, 2 compounds whose answers are already recorded.
{"columns": ["compound", "Cmax"],
 "data": [
  ["CC[C@@H](N(NC(=O)c1ccc2c(c1F)COB2O)C(=O)c1cc(C)cc(C)c1)C(C)(C)C [Cpd. No. 67]", "3320 ng/mL"],
  ["CCC[C@@H](N(NC(=O)c1cccc(OC)c1C)C(=O)c1cc(C)cc(C)c1)C(C)(C)C [Cpd. A, reference compound]", "255 ng/mL"]
]}

With those in mind, consider the next compound.
Please supply the value of reported Cmax for the item Cc1cc(C)cc(C(=O)N(NC(=O)c2cccc(B(O)O)c2F)C(C)(C)C)c1 [Cpd. No. 5]
1890 ng/mL

* * *

Target: RheoSwitch® (CHO-K1_RS-1 cells, firefly Luciferase reporter) (Choristoneura fumiferana, UniProt O77240)
Sequence (O77240 1-513): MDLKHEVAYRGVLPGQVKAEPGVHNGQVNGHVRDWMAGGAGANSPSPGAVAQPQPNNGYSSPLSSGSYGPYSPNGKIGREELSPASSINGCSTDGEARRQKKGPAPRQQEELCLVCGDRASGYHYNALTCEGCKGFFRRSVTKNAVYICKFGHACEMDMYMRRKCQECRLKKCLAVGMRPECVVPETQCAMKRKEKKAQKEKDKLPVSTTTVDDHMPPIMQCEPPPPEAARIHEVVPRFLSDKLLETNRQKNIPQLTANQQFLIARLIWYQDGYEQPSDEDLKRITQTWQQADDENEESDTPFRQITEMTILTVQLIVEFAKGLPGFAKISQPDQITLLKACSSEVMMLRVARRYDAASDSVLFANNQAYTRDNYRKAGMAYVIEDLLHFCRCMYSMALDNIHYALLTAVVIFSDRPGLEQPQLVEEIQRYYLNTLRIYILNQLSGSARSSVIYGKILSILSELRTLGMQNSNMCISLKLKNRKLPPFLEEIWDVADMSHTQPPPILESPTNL
Experiment: in vitro gene switch assay (fLUC Luciferase expression, potency screen)
Type: cell-based
Conditions: read-out: fLUC assay EC50 Run 1, 24 hours with compound, Run 1
measured.attribute: EC50

{"columns": ["molecule", "measured.attribute", "assay.result"],
 "data": [
  ["Cc1cc(C)cc(C(=O)N(NC(=O)c2ccc3c(c2F)COB3O)C(c2ccccc2)C(C)(C)C)c1 (stereo not shown)", "EC50", "~362 nM"],
  ["CC[C@@H](N(NC(=O)c1ccc(COC)c(B2OC(C)(C)C(C)(C)O2)c1F)C(=O)c1cc(C)cc(C)c1)C(C)(C)C", "EC50", "47.6 nM"],
  ["CC[C@@H](N(NC(=O)c1ccc(B(O)O)cc1F)C(=O)c1cc(C)cc(C)c1)C(C)(C)C", "EC50", "69.4 nM"],
  ["COCc1ccc(C(=O)NN(C(=O)c2cc(C)cc(C)c2)C(C)(C)C)c(F)c1B1OC(C)(C)C(C)(C)O1", "EC50", "778 nM"]
]}

Please supply the value of reported EC50 for the item Cc1cc(C)cc(C(=O)N(NC(=O)c2ccc3c(c2C)OCCNB3O)C(C)(C)C)c1
132 nM

Please supply the value of reported EC50 for the item CC[C@@H](N(NC(=O)c1ccc2c(c1C)OCCNB2O)C(=O)c1cc(C)cc(C)c1)C(C)(C)C
187 nM

Please supply the value of reported EC50 for the item CCC[C@@H](N(NC(=O)c1ccc([B-](F)(F)F)cc1F)C(=O)c1cc(C)cc(C)c1)C(C)(C)C
66.8 nM

Please supply the value of reported EC50 for the item CCOCc1ccc(C(=O)NN(C(=O)c2cc(C)cc(C)c2)[C@H](CC)C(C)(C)C)c(F)c1B(O)O
389 nM

Please supply the value of reported EC50 for the item CC[C@@H](N(NC(=O)c1ccc(COC)c(B(O)O)c1F)C(=O)c1cc(C)cc(C)c1)C(C)(C)C
48.8 nM

Please supply the value of reported EC50 for the item COCc1ccc(C(=O)NN(C(=O)c2cc(C)cc(C)c2)C(C)(C)C)c(F)c1B(O)O
667 nM

* * *

Assay: Pharmacokinetic (PK) study, oral gavage, plasma LC-MS/MS
Conditions: female, Sprague Dawley, rat, po, 10 mg/kg, half-life, female Sprague Dawley rats, oral gavage 10 mg/kg, Capryol 90/Triacetin (1:1, v/v)
Think of 5 h as a floor: if half-life stands on it or above, it is fulfilled; beneath it, not fulfilled.

Some solved entries appear below for comparison.
{"columns": ["compound", "assigned.class"],
 "data": [
  ["Cc1cc(C)cc(C(=O)N(NC(=O)c2cccc(B(O)O)c2F)C(C)(C)C)c1", "not fulfilled"],
  ["CCC[C@@H](N(NC(=O)c1ccc(B(O)O)c(F)c1)C(=O)c1cc(C)cc(C)c1)C(C)(C)C", "fulfilled"],
  ["Cc1cc(C)cc(C(=O)N(NC(=O)c2ccc3c(c2F)B(O)OC3)C(C)(C)C)c1", "fulfilled"],
  ["CC[C@@H](N(NC(=O)c1ccc2c(c1F)COB2O)C(=O)c1cc(C)cc(C)c1)C(C)(C)C", "fulfilled"],
  ["CCC[C@@H](N(NC(=O)c1cccc(OC)c1CC)C(=O)c1cc(C)cc(C)c1)C(C)(C)C [Cpd. B, reference compound]", "fulfilled"]
]}

Hi, just wondering whether CC[C@@H](N(NC(=O)c1ccc2c(c1F)B(O)OC2)C(=O)c1cc(C)cc(C)c1)C(C)(C)C shows half-life of 5 h or higher.
fulfilled

Hi, just wondering whether CCC[C@@H](N(NC(=O)c1ccc(B(O)O)cc1F)C(=O)c1cc(C)cc(C)c1)C(C)(C)C shows half-life of 5 h or higher.
not fulfilled

Hi, just wondering whether CCC[C@@H](N(NC(=O)c1cccc(OC)c1C)C(=O)c1cc(C)cc(C)c1)C(C)(C)C [Cpd. A, reference compound] shows half-life of 5 h or higher.
not fulfilled

* * *

Assay: in vivo
Conditions: female, Sprague Dawley, rat, po, 10 mg/kg, Tmax
measured.attribute: Tmax (h)
// units = h; emit number, no label

Please supply the value of reported Tmax for the item Cc1cc(C)cc(C(=O)N(NC(=O)c2ccc3c(c2C)OCCO3)C(C)(C)C)c1
2.5
